tgt: VEGF165 (Homo sapiens, UniProt P15692-4 P15692-4:27-191)
Sequence (P15692 other isoform, or with tags, fused parts or gaps): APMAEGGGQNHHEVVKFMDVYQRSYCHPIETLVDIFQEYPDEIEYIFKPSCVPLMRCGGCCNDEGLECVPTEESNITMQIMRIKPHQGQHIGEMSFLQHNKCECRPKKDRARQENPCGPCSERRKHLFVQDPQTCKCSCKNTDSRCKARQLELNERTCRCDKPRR
method.description: filter; s.d. 11; text gives 49 pM; 37 C; calcium required
condition.notes: tags: carrier-free, Sf 21 insect cell expressed, R & D Systems; chain copies: 2 (inferred)
Description: Nucleic Acid Ligands radiolabeled during transcription by incorporation of α-[³²P]-labeled NTPs, or after synthesis using γ-[³²P]-ATP and T4 polynucleotide kinase, were incubated in low concentration (between 20 and 70 pM) with varying concentrations of VEGF or other growth factors at 37° C. for 15 minutes. […] Filters were immersed in scintillant and counted to quantitate the amount of protein-bound RNA retained by each filter. […]
pKd: −log10 of the molar value.

[
  {
    "binder": "CGGAAUCAGUGAAUGCUUAUACAUCCG (ssRNA, 2'-F pyrimidines, 2'-OMe purines except 2'-OH A4, A5) [t44-OMe]",
    "pKd": 10.29
  }
]
